Reported aptazyme ON/OFF ratio values for a set of variants
B1: Pistol ribozyme (parent)
chain: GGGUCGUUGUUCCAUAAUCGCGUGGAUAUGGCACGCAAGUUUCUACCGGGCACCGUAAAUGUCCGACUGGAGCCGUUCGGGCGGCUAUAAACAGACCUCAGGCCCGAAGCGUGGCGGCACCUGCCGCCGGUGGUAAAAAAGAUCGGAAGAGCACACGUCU

variants of: B1; assay: aptazyme ON/OFF ratio, guanine; higher = stronger switching; co-transcriptional cleavage with and without guanine
property measured: aptazyme ON/OFF ratio

variant_spec="U8C G9U U11G C12G C13A" obs_value=1.19
variant_spec="U7C U8G G9U U10G C12A C13G" obs_value=1.09
variant_spec="U7C U10A C12G C13G" obs_value=1.14
variant_spec="U7G U8C G9U U10A U11C C13U" obs_value=1.18
variant_spec="U7G U8C G9A U11A C12A C13G" obs_value=1.07
variant_spec="U7G U8G G9C U11C C12A C13U" obs_value=4.45
variant_spec="U8G G9C U10A U11A C12G" obs_value=1.16
variant_spec="U8A G9A U11A C12U C13U" obs_value=1.29
variant_spec="U7G U8G G9U U11A C12A C13G" obs_value=1.13
variant_spec="U7C G9U U11C C12G C13U" obs_value=1.07
variant_spec="U7A U8A G9U U10C U11G C12G C13G" obs_value=1.21
variant_spec="U7C G9C U10C U11C" obs_value=0.99
variant_spec="U7C U10A U11G C12U" obs_value=1.19
variant_spec="U8G G9U U10C U11A C12A C13U" obs_value=1.09
variant_spec="U8G G9C U10C C12U" obs_value=1.03
variant_spec="U7A U8G G9C U10A U11G C13G" obs_value=1.26
variant_spec="U7C U8G G9A U10C C13U" obs_value=1.92
variant_spec="U8G G9U U10A U11G C12U" obs_value=1.24
variant_spec="U8G G9A U10C U11A C12G C13U" obs_value=1.15
